Overview of reported activity, negative = inhibition across a group of compounds:
- methodSummary: Stat Signaling Pathway (AID 446);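 also: ME-180 cervical cancer cells given 40 pM IL-6 alongside compound; SIE-controlled beta-lactamase reporter measured as 460/530 nm FRET emission ratio; % is scaled to controls: 0 for no effect and ±100 for the full control effect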
- measurementConditions: ME-180 (cervical carcinoma) SIE beta-lactamase reporter, IL-6 stimulated, 5 h; at 17.2 µM (top of the series) unless noted
Results filed as inconclusive are left out. The source made the active and inactive calls. Calls follow the shape of the dose curve; as a rule, active = well fitted curve in either direction with a large enough effect (not every such curve was filed as active); inconclusive = small, poorly fitted or top-dose-only effect, or another doubt; inactive = flat fitted curve, though single readings scatter.
parameter: activity, negative = inhibition

> print(dat)
                                    compound       valuemeasured
 1               O=C1c2ccccc2C(=O)N1c1ncccn1    9.87% (inactive)
 2           CC(C)Oc1ccc(C(=O)CCN2CCCCC2)cc1   -10.9% (inactive)
 3  CCCCOc1ccccc1P(=O)(O)CP(=O)(c1ccccc1)c1ccccc1   -14.9% (inactive)
 4           CCOC(=O)CCNc1n[nH]c(=O)[nH]c1=O   -2.32% (inactive)
 5  Cc1c(N=Cc2c(O)n(C3CCCCC3)c(=O)[nH]c2=O)c(=O)n(-c2ccccc2)n1C   -1.79% (inactive)
 6  COc1ccc(-n2ncc3c(N4CCC(C(N)=O)CC4)ncnc32)cc1   -1.03% (inactive)
 7  Cc1cc(=O)oc2c(CN3CCC(C)CC3)c(O)c(Cl)cc12    7.86% (inactive)
 8  COc1cccc(C2=CC(c3ccccc3)n3ncnc3N2)c1 (stereo unspecified)   -5.76% (inactive)
 9     Cc1nc(Sc2cccn2C)c(C(F)(F)F)c(=O)[nH]1   -1.21% (inactive)
10        Cc1cc(COc2ccccc2OCCN2CCN(C)CC2)no1  -0.578% (inactive)
11  CCCOc1ccc(/C(O)=C2/C(=O)C(=O)N(CCN3CCOCC3)C2c2ccccc2)cc1 (stereo unspecified)   -4.33% (inactive)
